Source of measurements: paper PMC10958515

Molecular target: hNaV1.1 (Homo sapiens)
Test: Qube automated patch-clamp, NaV subtype inhibition
Format: cell-based
reported.endpoint: IC50 (µM)
Use µM as the unit, but write only the number.

Q. Which measured IC50 value corresponds to NC(=O)N1c2ccccc2C=Cc2ccccc21 [carbamazepine] ?
A. 39.3

====

Molecular target: hNaV1.2 (Homo sapiens)
Sequence (Q99250 whole entry): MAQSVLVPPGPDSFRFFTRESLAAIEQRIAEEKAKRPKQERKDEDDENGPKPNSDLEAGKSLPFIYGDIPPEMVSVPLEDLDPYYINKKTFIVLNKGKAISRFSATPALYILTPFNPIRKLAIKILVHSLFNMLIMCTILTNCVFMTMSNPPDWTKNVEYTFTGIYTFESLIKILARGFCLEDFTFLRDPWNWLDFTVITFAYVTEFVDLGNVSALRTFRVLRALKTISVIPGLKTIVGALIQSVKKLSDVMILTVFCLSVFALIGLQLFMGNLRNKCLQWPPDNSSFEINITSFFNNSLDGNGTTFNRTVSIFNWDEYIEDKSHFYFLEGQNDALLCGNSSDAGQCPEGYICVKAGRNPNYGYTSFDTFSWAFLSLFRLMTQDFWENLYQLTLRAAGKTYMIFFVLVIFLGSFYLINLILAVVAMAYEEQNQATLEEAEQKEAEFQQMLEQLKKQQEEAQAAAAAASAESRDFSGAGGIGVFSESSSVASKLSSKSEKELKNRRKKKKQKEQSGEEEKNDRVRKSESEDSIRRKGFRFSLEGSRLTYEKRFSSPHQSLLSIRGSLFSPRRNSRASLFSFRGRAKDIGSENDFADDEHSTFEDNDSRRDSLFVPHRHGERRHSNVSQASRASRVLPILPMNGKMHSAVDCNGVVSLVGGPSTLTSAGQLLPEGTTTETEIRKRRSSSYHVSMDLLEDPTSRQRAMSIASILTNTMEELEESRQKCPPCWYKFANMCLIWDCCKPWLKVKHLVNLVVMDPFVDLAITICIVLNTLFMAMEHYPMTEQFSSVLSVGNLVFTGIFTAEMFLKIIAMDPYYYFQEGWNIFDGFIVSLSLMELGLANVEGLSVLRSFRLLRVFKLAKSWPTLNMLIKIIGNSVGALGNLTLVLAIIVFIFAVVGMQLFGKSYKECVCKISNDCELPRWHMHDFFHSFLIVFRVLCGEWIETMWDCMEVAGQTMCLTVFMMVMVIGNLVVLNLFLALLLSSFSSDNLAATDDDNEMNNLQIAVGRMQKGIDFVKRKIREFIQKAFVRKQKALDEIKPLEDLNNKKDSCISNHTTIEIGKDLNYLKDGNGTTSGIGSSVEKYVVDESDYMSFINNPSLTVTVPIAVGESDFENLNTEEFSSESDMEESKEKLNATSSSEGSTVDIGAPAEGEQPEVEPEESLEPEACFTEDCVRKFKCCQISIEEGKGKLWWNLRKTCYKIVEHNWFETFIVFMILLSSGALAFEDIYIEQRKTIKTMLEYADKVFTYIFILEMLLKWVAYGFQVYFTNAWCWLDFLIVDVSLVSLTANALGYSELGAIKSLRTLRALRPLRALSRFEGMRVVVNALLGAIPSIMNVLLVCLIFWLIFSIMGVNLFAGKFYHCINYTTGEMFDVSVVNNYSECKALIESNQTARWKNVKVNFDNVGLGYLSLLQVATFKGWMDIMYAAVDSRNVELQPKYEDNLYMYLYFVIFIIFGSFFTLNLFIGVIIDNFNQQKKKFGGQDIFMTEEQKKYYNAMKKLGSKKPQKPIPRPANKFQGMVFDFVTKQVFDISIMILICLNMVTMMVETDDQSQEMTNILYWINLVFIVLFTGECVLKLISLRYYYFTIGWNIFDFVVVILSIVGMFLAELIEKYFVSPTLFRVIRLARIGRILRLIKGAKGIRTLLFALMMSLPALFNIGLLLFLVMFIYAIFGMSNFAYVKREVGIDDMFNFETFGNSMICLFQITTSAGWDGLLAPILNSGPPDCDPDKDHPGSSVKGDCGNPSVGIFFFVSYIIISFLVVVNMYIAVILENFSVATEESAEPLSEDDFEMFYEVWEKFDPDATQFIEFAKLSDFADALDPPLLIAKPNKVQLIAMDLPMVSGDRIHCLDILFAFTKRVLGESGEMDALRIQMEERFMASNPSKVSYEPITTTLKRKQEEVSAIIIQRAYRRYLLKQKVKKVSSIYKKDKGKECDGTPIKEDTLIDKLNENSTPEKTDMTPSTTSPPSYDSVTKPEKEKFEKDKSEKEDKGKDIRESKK
Experiment: Qube automated patch-clamp, NaV subtype inhibition
reported.endpoint: pIC50
pIC50 here is simply -log10 of the concentration when that concentration is written in mol/L.

Q. So what does the record say about pIC50 for NC(=O)N1c2ccccc2C=Cc2ccccc21 [carbamazepine] ?
A. 4.17

====

Biological target: NaV1.6 (Homo sapiens, UniProt Q9UQD0)
Sequence (Q9UQD0 whole entry): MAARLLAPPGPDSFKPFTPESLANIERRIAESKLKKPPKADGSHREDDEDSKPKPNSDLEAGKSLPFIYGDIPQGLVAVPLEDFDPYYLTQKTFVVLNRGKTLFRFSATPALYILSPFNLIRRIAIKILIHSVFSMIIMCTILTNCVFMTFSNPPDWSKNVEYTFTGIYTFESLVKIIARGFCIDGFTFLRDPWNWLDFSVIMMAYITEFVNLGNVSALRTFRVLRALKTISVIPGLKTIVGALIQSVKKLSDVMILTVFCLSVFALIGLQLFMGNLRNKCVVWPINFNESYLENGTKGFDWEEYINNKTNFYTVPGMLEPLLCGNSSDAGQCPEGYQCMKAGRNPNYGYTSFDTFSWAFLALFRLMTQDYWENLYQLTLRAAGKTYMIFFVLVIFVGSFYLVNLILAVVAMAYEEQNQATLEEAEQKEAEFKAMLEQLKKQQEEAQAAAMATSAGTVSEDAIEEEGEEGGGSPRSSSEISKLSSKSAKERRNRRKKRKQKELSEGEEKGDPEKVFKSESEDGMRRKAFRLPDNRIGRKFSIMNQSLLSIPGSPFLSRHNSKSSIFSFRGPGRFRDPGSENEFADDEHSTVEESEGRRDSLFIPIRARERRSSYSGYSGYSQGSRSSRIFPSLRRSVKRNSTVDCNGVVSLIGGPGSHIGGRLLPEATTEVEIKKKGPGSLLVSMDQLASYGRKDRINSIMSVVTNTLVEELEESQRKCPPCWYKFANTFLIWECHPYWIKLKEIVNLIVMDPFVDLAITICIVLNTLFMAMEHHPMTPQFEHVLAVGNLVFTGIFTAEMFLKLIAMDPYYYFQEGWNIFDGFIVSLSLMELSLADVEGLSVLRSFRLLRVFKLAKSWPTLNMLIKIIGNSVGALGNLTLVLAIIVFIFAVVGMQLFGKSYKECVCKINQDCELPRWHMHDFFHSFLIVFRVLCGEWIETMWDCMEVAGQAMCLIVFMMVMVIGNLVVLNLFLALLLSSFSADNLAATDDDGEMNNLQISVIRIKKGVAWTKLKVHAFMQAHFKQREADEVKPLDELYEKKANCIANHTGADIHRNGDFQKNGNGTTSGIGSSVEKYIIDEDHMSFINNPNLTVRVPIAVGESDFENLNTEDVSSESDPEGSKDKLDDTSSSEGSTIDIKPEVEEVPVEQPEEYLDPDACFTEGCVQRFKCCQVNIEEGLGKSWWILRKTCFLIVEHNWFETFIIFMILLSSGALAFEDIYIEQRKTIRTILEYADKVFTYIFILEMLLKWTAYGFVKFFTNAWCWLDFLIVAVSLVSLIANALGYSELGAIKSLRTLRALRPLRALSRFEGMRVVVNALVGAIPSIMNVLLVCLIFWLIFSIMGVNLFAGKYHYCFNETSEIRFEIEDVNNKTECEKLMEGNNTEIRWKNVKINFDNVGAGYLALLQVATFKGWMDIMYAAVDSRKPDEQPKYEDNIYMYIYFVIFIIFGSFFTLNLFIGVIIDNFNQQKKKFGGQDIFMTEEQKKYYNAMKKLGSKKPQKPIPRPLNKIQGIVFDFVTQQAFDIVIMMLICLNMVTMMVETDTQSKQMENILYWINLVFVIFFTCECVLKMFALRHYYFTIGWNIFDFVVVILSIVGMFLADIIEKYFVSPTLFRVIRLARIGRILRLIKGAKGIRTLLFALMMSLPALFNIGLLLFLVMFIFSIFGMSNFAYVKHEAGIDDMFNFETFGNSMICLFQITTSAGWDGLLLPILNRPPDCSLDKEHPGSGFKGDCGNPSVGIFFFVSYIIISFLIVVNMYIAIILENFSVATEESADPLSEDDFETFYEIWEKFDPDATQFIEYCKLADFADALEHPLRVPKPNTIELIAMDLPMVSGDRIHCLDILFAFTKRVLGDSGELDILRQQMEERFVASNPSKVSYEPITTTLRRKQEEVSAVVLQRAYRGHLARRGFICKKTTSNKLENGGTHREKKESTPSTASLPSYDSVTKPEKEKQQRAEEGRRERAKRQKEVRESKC
Sequence (Q92913 1-192 isoform Q92913-2 partner): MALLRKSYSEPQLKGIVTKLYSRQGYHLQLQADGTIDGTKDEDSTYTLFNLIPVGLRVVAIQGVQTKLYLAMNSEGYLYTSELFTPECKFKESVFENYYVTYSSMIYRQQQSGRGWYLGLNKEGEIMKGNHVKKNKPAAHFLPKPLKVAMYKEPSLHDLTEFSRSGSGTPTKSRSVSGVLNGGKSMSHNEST
Experiment: Steady-state and use-dependent inhibition
Assay type: cell-based
Settings: IC50 for UDB (P500), V0.5 holding potential, 500th pulse
reported.endpoint: IC50
Answer by giving the amount and then stating its unit.

Q. Consider the compound NC(=O)N1c2ccccc2C=Cc2ccccc21 [carbamazepine] and give its measured IC50.
A. 16.2 µM

====

Target: NaV1.6 (Homo sapiens, UniProt Q9UQD0)
Assay: Steady-state and use-dependent inhibition
Format: cell-based
Conditions: read-out: IC50 for UDB (P500); V0.5 holding potential, 500th pulse
reported.endpoint: pIC50
For clarity, pIC50 is expressed as the negative log10 of concentration in mol/L.

Q. Please give the measured pIC50 for this compound: O=C1NC(=O)C(c2ccccc2)(c2ccccc2)N1 [phenytoin]
A. 5.17
